binding signal for assorted binders
Target: T1, UNK ZnF1-3 (human, UniProt Q9C0B0 31-174)
T1 sequence: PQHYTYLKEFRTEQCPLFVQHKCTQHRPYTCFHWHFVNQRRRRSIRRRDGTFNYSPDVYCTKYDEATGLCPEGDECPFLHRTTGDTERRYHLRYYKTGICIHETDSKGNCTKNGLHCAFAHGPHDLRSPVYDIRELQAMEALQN
Test: nsRBNS (natural sequence RNA bind-n-seq); RBNS binding buffer (assumed for nsRBNS): 25 mM Tris pH 7.5, 150 mM KCl, 3 mM MgCl2, 0.01% Triton X-100, 500 ug/ml BSA, 20 U/ml SUPERase-In, 4 C; UNK is unkempt and MSI1 is Musashi-1; names of the RNAs are library labels; protein concentration not given here; high values mean tight binding
In all, about 24,000 sequences were measured (“enrichment r”: median about 0.99, highest 2% from about 3.7 on). The sample holds the highest values, similar sequences and a random draw of the others, so the mix is not that of the screen.
Give the value, in units of enrichment R, as a plain number.

BINDER	binding signal / enrichment R
chr17:60770872:60770873:+_ENSG00000011028_ENST00000303375|hu_hu|hu_hu_hu_mus_True|58_68 (ssRNA) RNA: GGGAGUUCUACAGUCCGACGAUCUCUUUAAAAAAAAAAAAAAAAAGACAAACAAUAAUAGCACAUUAUUUAAAAAAUCAACUACAGUAGAGGGUCCGCUUUGAGUUUUUGUUCACAUCGUCCUGCACUGGGACACGGGGACUGCAACAGAGGAUUGAGCAUCA	4.95

Task: Look up binding signal for this binder: chr17:60770872:60770873:+_ENSG00000011028_ENST00000303375|hu_hu|hu_hu_hu_mus_True|28_68 (ssRNA) RNA: GGGAGUUCUACAGUCCGACGAUCUCUUUAAAAAAAAAAAAAAAAAGACAAACAAUAAUAGCACAUUAUUUAAAAAAAGAACUACAAUAGAGGGUCCGCUUUGAGUUGUCCAUGUUCUCGUCCUGCACUGGGACACGGGGACUGCAACAGAGGAUUGAGCAUCA
Result: 4.92

Task: Reported binding signal for chr18:56819859:56819860:+_ENSG00000166562_ENST00000588875|hu_mus|hu_hu_hu_mus_True|18_38 (ssRNA) RNA: GGGAGUUCUACAGUCCGACGAUCAACCUUGAUUACUCUGUGAACUAUCGGAAUGUCUCUUCCUUCAACCUUAAAAACAACUAUUUCACCAGCUCUGAUUGGGUCUUCCCGGAAAUUUGUGAGGAACAGCAGAUCUCCUCUGUGCAACAGAGGAUUGAGCAUCA : what is it?
Result: 0.803
